These measurements were taken from the supplement of paper PMC12494721.

The reader will find reported growth values listed item by item below.
- Tested on: Escherichia coli IAI1
- TEST SUMMARY: growth (OD595) fold change vs plate DMSO controls (fold change (ratio)); higher = more growth
- APPLIED CONDITIONS: incubation time: 27 h, anaerobic, 37 °C
Counter-ions that a name gives are not always drawn.
Please state the value as a number alone, without comment.

Worked cases, answers included:
Cc1cc(C(C)(C)C)c(O)c(C)c1CC1=NCCN1 [Oxymetazoline hydrochloride] (20 µM): 1.02
CC(=O)c1ccc(S(=O)(=O)NC(=O)NC2CCCCC2)cc1 [Acetohexamide] (20 µM): 1.02
Cc1ccc(N(CC2=NCCN2)c2cccc(O)c2)cc1 [Phentolamine hydrochloride] (20 µM): 1
CS(=O)(=O)c1ccc(C2=C(c3ccccc3)C(=O)OC2)cc1 [Rofecoxib] (20 µM): 0.962
N#Cc1cc(NC(=O)C(=O)O)c(Cl)c(NC(=O)C(=O)O)c1 [Lodoxamide] (20 µM): 1.15
O=C1[C@H]2CCCC[C@H]2C(=O)N1CCCCN1CCN(c2nsc3ccccc23)CC1 [Perospirone hydrochloride] (20 µM): 0.968
Cc1cccc(Nc2ccccc2C(=O)O)c1C [Mefenamic acid] (20 µM): 0.988
C[C@]12C=CC(=O)C=C1CC[C@@H]1[C@@H]2C(=O)C[C@@]2(C)[C@H]1CC[C@]2(O)C(=O)CO [Prednisone] (20 µM): 1.05

Here CCC1NC(=O)c2cc(S(N)(=O)=O)c(Cl)cc2N1 (configuration not stated) [Quinethazone] (20 µM) was tested on Escherichia coli IAI1, and its growth came to 0.894

Here Cc1ccc(S(=O)(=O)NCl)cc1 [Chloramine-T hydrate] (20 µM) was tested on Escherichia coli IAI1, and its growth came to 0.978

----------
- Tested on: Ruminococcus gnavus DSM 108212
- TEST SUMMARY: fold change of 2-Phenylethylamine concentration vs plate DMSO controls (fold change (ratio)); higher = more amine produced, active = hit call of the paper (significant change in both replicates, either direction)
- APPLIED CONDITIONS: incubation time: 27 h, anaerobic, 37 °C
Counter-ions that a name gives are not always drawn.
Use satisfied when the recorded fold change of 2-Phenylethylamine concentration is no lower than 1; use not satisfied when it is lower.

Worked cases, answers included:
CCN(CC)C(=O)Nc1ccc(OCC(O)CNC(C)(C)C)c(C(C)=O)c1 (configuration not stated) [Celiprolol hydrochloride] (20 µM): satisfied
CCn1cc(C(=O)O)c(=O)c2cnc(N3CCNCC3)nc21 [Pipemidic acid] (20 µM): not satisfied
COc1cc(C(=O)OCCCN2CCCN(CCCOC(=O)c3cc(OC)c(OC)c(OC)c3)CC2)cc(OC)c1OC [Dilazep dihydrochloride] (20 µM): satisfied
O=C1CC2(CCCC2)CC(=O)N1CCCCN1CCN(c2ncccn2)CC1 [Buspirone hydrochloride] (20 µM): satisfied

Now, please, on to the next compound.
Is the recorded value of fold change of 2-Phenylethylamine concentration equal to or greater than 1 for this compound? COC(=O)[C@H](Cc1ccccc1)NC(=O)[C@H](CC(=O)O)NCCCc1ccc(OC)c(O)c1 [Advantame] (50 µM) not satisfied

----------
- Test system: Clostridium sporogenes DSM 1664
- TEST SUMMARY: fold change of Tryptamine concentration vs plate DMSO controls (fold change (ratio)); higher = more amine produced, active = hit call of the paper (significant change in both replicates, either direction);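 for the amine columns active = adjusted P below 0.05 in both replicates with a change the same way and a mean fold change under 0.8 or over 1.25; inactive = the rest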
- APPLIED CONDITIONS: incubation time: 27 h, anaerobic, 37 °C
Where a name gives a salt, the structure may show the parent alone.
Allowed answers: active, inactive

C=C1C[C@H]2[C@@H]3C=C(C)C4=CC(=O)CC[C@]4(C)[C@H]3CC[C@]2(C)[C@@]1(OC(C)=O)C(C)=O [Melengestrol acetate] (20 µM): inactive
C[C@]1(Cn2ccnn2)[C@H](C(=O)O)N2C(=O)C[C@H]2S1(=O)=O [Tazobactam] (20 µM): active

Look up the recorded call for CC(C)(C)NC(=O)[C@@H]1CN(Cc2cccnc2)CCN1C[C@@H](O)C[C@@H](Cc1ccccc1)C(=O)N[C@H]1c2ccccc2C[C@H]1O [Indinavir sulfate] (20 µM) in this test. inactive

----------
- System: Escherichia coli IAI1
- TEST SUMMARY: growth (OD595) fold change vs plate DMSO controls (fold change (ratio)); higher = more growth
- APPLIED CONDITIONS: incubation time: 27 h, anaerobic, 37 °C
Where a name gives a salt, the structure may show the parent alone.
QUANTITY NAME: growth
Please state the value as a number alone, without comment.

Worked cases, answers included:
CC(C)NC[C@H](O)COc1cccc2ccccc12 [(S)-(-)-Propranolol hydrochloride] (20 µM): 1.03
N#Cc1ccc(Oc2ccc3c(c2)COB3O)cc1 [Crisaborole] (20 µM): 0.983
CC(C(=O)O)c1ccc2c(c1)[nH]c1ccc(Cl)cc12 (stereo unspecified) [Carprofen] (20 µM): 1.02
CNCC[C@@H](Oc1cccc2ccccc12)c1cccs1 [(R)-Duloxetine hydrochloride] (20 µM): 1.07
Nc1ccccc1S(N)(=O)=O [o-Sulfanilamide] (20 µM): 1.01
CCOC(=O)[C@H](CCc1ccccc1)N[C@@H](C)C(=O)N1CCC[C@H]1C(=O)O [Enalapril maleate] (20 µM): 1.07
CN(C/C=C/c1ccccc1)Cc1cccc2ccccc12 [Naftifine hydrochloride] (20 µM): 1.21
COc1cccc2c1C(=O)c1c(O)c3c(c(O)c1C2=O)C[C@@](O)(C(=O)CO)C[C@@H]3O[C@H]1C[C@H](N)[C@@H](O)[C@H](C)O1 [Epirubicin hydrochloride] (20 µM): 0.0185
O=C1NCN(c2ccccc2)C12CCN(CCCC(c1ccc(F)cc1)c1ccc(F)cc1)CC2 [Fluspirilene] (20 µM): 0.951
Oc1ccccc1O [Catechol] (20 µM): 1.01

Quick note, growth for C[C@H](O)[C@H](O)[C@H]1CNc2[nH]c(N)nc(=O)c2N1 [Sapropterin dihydrochloride] (20 µM) landed at 0.893

Quick note, growth for O=C(CCNNC(=O)c1ccncc1)NCc1ccccc1 [Nialamide] (20 µM) landed at 0.991

Quick note, growth for CCOc1nc2cccc(C(=O)OCc3oc(=O)oc3C)c2n1Cc1ccc(-c2ccccc2-c2noc(=O)[nH]2)cc1 [Azilsartan medoxomil] (20 µM) landed at 1

Quick note, growth for N[C@@H](Cc1ccc(O)c(O)c1)C(=O)O [Levodopa] (20 µM) landed at 0.977

Quick note, growth for O=C(O)Cc1csc(-c2ccc(Cl)cc2)n1 [Fenclozic acid] (20 µM) landed at 0.949

Quick note, growth for CNCCC(Oc1ccccc1OC)c1ccccc1 (stereo unspecified) [Nisoxetine hydrochloride] (20 µM) landed at 0.74

Quick note, growth for CCOC(=O)[C@@](C)(N)Cc1ccc(O)c(O)c1 [Methyldopate hydrochloride] (20 µM) landed at 1.05

----------
- System: Ruminococcus gnavus DSM 108212
- TEST SUMMARY: fold change of 2-Phenylethylamine concentration vs plate DMSO controls (fold change (ratio)); higher = more amine produced, active = hit call of the paper (significant change in both replicates, either direction)
- APPLIED CONDITIONS: incubation time: 27 h, anaerobic, 37 °C
Counter-ions that a name gives are not always drawn.
QUANTITY NAME: fold change of 2-Phenylethylamine concentration
Please state the value as a number alone, without comment.

NC(N)=Nc1nc(CSCC/C(N)=N/S(N)(=O)=O)cs1 [Famotidine] (20 µM): 1.07
CC[C@@H]1C(=O)OC[C@@H]1Cc1cncn1C [Pilocarpine nitrate] (20 µM): 0.965
Nc1ccc(S(=O)(=O)c2ccc(N)cc2)cc1 [Dapsone] (20 µM): 1.04

Here Cc1c(N(C)CS(=O)(=O)O)c(=O)n(-c2ccccc2)n1C [Dipyrone sodium salt] (20 µM) was tested on Ruminococcus gnavus DSM 108212, and its fold change of 2-Phenylethylamine concentration came to 1

Here Cc1cnc(C(=O)O)c[n+]1[O-] [Acipimox] (20 µM) was tested on Ruminococcus gnavus DSM 108212, and its fold change of 2-Phenylethylamine concentration came to 1.03

Here CCOc1nc2cccc(C(=O)O)c2n1Cc1ccc(-c2ccccc2-c2nnn[nH]2)cc1 [Candesartan] (20 µM) was tested on Ruminococcus gnavus DSM 108212, and its fold change of 2-Phenylethylamine concentration came to 0.947

Here O=C(O)c1cccnc1 [Niacin] (20 µM) was tested on Ruminococcus gnavus DSM 108212, and its fold change of 2-Phenylethylamine concentration came to 0.993

Here CCOC(=O)[C@H](CCc1ccccc1)N[C@@H](C)C(=O)N1C(=O)N(C)C[C@H]1C(=O)O [Imidapril hydrochloride] (20 µM) was tested on Ruminococcus gnavus DSM 108212, and its fold change of 2-Phenylethylamine concentration came to 1.05

Here CNCCC=C1c2ccccc2CCc2ccccc21 [Nortriptyline hydrochloride] (20 µM) was tested on Ruminococcus gnavus DSM 108212, and its fold change of 2-Phenylethylamine concentration came to 1.03

----------
- Test system: Ruminococcus gnavus DSM 108212
- TEST SUMMARY: fold change of Tryptamine concentration vs plate DMSO controls (fold change (ratio)); higher = more amine produced, active = hit call of the paper (significant change in both replicates, either direction)
- APPLIED CONDITIONS: incubation time: 27 h, anaerobic, 37 °C
Where a name gives a salt, the structure may show the parent alone.
QUANTITY NAME: fold change of Tryptamine concentration
Please state the value as a number alone, without comment.

NC12CC3CC(CC(C3)C1)C2 [Adamantamine fumarate] (20 µM): 1.09

Quick note, fold change of Tryptamine concentration for CC(=O)NS(=O)(=O)c1ccc(NC(=O)c2ccccc2C(=O)O)cc1 [Phthalylsulfacetamide] (20 µM) landed at 1.03

Quick note, fold change of Tryptamine concentration for CC1(C)O[C@@H]2C[C@H]3[C@@H]4CCC5=CC(=O)C=C[C@]5(C)[C@H]4[C@@H](O)C[C@]3(C)[C@]2(C(=O)CO)O1 [Desonide] (20 µM) landed at 1.14

Quick note, fold change of Tryptamine concentration for c1cnc(N2CCN(Cc3ccc4c(c3)OCO4)CC2)nc1 [Piribedil] (20 µM) landed at 1.02

Quick note, fold change of Tryptamine concentration for Cc1c(Cl)cccc1Nc1ccccc1C(=O)O [Tolfenamic acid] (20 µM) landed at 0.951

Quick note, fold change of Tryptamine concentration for CN(C)CC/C=C1/c2ccccc2Sc2ccc(Cl)cc21 [Chlorprothixene hydrochloride] (20 µM) landed at 0.87

Quick note, fold change of Tryptamine concentration for Cc1ccc2c([nH]c(=O)c3c(=O)cc(C(=O)OCCC(C)C)oc32)c1C [Repirinast] (20 µM) landed at 0.977

Quick note, fold change of Tryptamine concentration for C[C@@H]1C[C@H]2[C@@H]3CCC4=CC(=O)C=C[C@]4(C)[C@@]3(Cl)[C@@H](O)C[C@]2(C)[C@@]1(OC(=O)c1ccco1)C(=O)CCl [Mometasone furoate] (20 µM) landed at 0.889

Quick note, fold change of Tryptamine concentration for CCC(=O)OCC(=O)[C@@]1(OC(=O)CC)[C@@H](C)C[C@H]2[C@@H]3CCC4=CC(=O)C=C[C@]4(C)[C@@]3(Cl)[C@@H](O)C[C@@]21C [Beclomethasone dipropionate] (20 µM) landed at 0.937

Quick note, fold change of Tryptamine concentration for COC(=O)C1=C(C)NC(C)=C(C(=O)OC)C1c1ccccc1[N+](=O)[O-] [Nifedipine] (20 µM) landed at 1

Quick note, fold change of Tryptamine concentration for OC[C@H]1O[C@H](O[C@]2(CCl)O[C@H](CCl)[C@@H](O)[C@@H]2O)[C@H](O)[C@@H](O)[C@H]1Cl [Sucralose] (50 µM) landed at 1.11

Quick note, fold change of Tryptamine concentration for O=[N+]([O-])c1ccc2c(c1)Cc1ccccc1-2 [2-Nitrofluorene] (20 µM) landed at 1.04

Quick note, fold change of Tryptamine concentration for CCn1cc(C(=O)O)c(=O)c2cc(F)c(N3CCNCC3)cc21 [Norfloxacin] (20 µM) landed at 0.863

Quick note, fold change of Tryptamine concentration for CCCCC1C(=O)N(c2ccccc2)N(c2ccc(O)cc2)C1=O (stereo not given) [Oxyphenbutazone] (20 µM) landed at 1.14

Quick note, fold change of Tryptamine concentration for Cc1nc(C)c(Cl)c(O)c1Cl [Clopidol] (20 µM) landed at 1.01
